Assayed target: T1, recombinant human domain 1-3His6 of the cation-independent mannose-6-phosphate receptor (human, UniProt P11717 41-467)
T1 construct: Biotinylated (NHS-PEG4-biotin) for BLI; Glycosylated; also called hDom1-3His6; hCI-M6PRD1-D3
Test method notes: BLI exp 1, dissoc pH 6
Measurement kind: kon (M⁻¹ s⁻¹)
Express it in M⁻¹ s⁻¹; write the number only.

anti-CI-M6PR VHH8 (VHH, His6-tagged (Pichia pastoris)) VHH: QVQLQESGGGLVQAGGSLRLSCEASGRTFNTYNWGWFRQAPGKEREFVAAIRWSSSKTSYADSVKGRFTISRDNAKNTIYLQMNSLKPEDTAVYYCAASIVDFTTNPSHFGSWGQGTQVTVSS : 231000
anti-CI-M6PR VHH1 (VHH, His6-tagged; made in Pichia pastoris, later also in E. coli WK6) VHH: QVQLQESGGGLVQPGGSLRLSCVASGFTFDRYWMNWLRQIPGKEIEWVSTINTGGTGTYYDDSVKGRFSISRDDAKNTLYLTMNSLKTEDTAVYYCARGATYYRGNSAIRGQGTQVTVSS : 1.3e+06

What value of kon has been recorded for this entry: anti-CI-M6PR VHH5 (VHH, His6-tagged; made in Pichia pastoris, later also in E. coli WK6) VHH: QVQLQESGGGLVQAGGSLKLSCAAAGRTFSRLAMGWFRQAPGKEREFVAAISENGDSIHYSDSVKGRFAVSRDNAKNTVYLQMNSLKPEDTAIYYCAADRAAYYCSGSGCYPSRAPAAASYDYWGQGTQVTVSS
1.38e+06
